- Test system: T. colubriformis
- Assay overview: Integrated in vitro screening, T. colubriformis
- Assay type: cell-based
- Applied conditions: Trichostrongylus colubriformis; in vitro; read-out: T. colubriformis, IC50
Measured quantity: IC50

NC(=O)c1cc(N2CC2)c([N+](=O)[O-])cc1[N+](=O)[O-] [Tretazicar, 5-(aziridin-1-yl)-2,4-dinitrobenzamide]: > 32 µM
